Biological target: T1, Human CD93 on the cell surface (human CD93 expressing CHO cells; HUVEC, U937 and KG1a cells) (human, UniProt Q9NPY3 22-652)
T1 construct: whole, on cells; also called hCD93 CHO cells; CHO-hCD93
T1 sequence (looked up): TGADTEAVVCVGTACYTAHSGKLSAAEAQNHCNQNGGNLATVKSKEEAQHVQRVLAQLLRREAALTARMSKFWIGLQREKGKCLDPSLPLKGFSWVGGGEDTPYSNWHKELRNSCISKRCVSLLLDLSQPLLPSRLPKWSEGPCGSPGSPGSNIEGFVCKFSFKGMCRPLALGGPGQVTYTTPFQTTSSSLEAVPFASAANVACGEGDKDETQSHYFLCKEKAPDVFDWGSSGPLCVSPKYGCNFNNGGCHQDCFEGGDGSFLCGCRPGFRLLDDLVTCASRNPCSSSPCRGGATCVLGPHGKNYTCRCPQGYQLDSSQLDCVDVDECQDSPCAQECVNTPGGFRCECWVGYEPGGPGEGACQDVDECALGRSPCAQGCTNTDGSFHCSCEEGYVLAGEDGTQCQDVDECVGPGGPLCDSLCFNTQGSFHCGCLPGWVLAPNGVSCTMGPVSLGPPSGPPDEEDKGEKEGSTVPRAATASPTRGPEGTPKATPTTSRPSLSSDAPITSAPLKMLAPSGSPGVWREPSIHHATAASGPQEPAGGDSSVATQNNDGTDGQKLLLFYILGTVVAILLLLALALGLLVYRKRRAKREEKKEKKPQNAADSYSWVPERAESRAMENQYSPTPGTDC
Assay: FACS, CHO cells overexpressing human CD93
experimental_readout: binding result

{"binder": "Humanized 17B10 H2L1 (antibody, mouse IgG1, V domains shown) VH: QVQLVQSGAEVVKSGASVKVSCKASGYAFSSYWLNWVRQAPGQGLEWFGRIYPGDGDTDYNGKFKGRVTLIRDTSTSTVYMELTSLTSEDTAVYYCVRGDGYWAMDYWGQGTLVTVSS VL: DIVMTQSPLSLPVTPGEPASISCRFSQSLLHSNGITYLYWYLQKPGQSPQLLIYQMSNLASGVPDRFSGSGSGTDFTLKISRVEAEDVGVYYCAQNLELPWTFGGGTKLEIK", "experimental_readout": "binding result", "measurement": "binds"}
{"binder": "Humanized 17B10 H1L3 (antibody, mouse IgG1, V domains shown) VH: QVQLVQSGAEVKKPGSSVKVSCKASGYAFSSYWLNWVRQAPGQGLEWFGRIYPGDGDTDYNGKFKGRVTLTADKSTSTAYMELSSLRSEDTAVYFCVRGDGYWAMDYWGQGTTVTVSS VL: DIVMTQSPDSLAVSLGERATINCRFSKSLLHSNGITYLYWYQQKPGQPPKLLIYQMSNLASGVPDRFSGSGSGTDFTLTISSLQAEDVAVYYCAQNLELPWTFGGGTKLEIK", "experimental_readout": "binding result", "measurement": "binds"}
